Would you mind telling me the reported pKi of each entry?
- tgt: LmajUUT1
- assaySummary: [3H]-uridine uptake by L. major promastigotes, high-affinity uracil-sensitive component
- assayContext: inhibition of 0.25 μM [3H]-uridine uptake
// pKi: -log10(molar conc.)

Prompt line: Recorded pKi for Nc1ncnc2c1ncn2[C@@H]1O[C@H](CO)[C@@H](O)[C@H]1O , please?
Response line: 5.71

Prompt line: Recorded pKi for O=c1cc[nH]c(=O)[nH]1 , please?
Response line: 5.58

Prompt line: Recorded pKi for Cc1cn([C@H]2C[C@H](O)[C@@H](CO)O2)c(=O)[nH]c1=O , please?
Response line: 4.22

Prompt line: Recorded pKi for O=c1ccn([C@H]2C[C@H](O)[C@@H](CO)O2)c(=O)[nH]1 , please?
Response line: 4.60

Prompt line: Recorded pKi for Nc1ncnc2[nH]cnc12 , please?
Response line: 5.29

Prompt line: Recorded pKi for O=c1[nH]cnc2c1ncn2[C@@H]1O[C@H](CO)[C@@H](O)[C@H]1O , please?
Response line: 6.30
